Below is a list of entries, each paired with its recorded Change value.
# System: Oryctolagus cuniculus
# protocol: % change in total cholesterol(TC) versus progression control (PC) with out drug intervention in chronic cholesterol-fed rabbit model at a dose of 25 mg/kg
# Assay type: functional

# example entries with known answers
Can you share its Change? I mean this compound: CCCCCCCCCCCCc1nnn(C(C(=O)Nc2c(C(C)C)cccc2C(C)C)c2ccccc2)n1 (centres undefined)
<68%

Can you share its Change? I mean this compound: CCCCCCCCCCCCn1nnc(C(C(=O)Nc2c(OC)cc(OC)cc2OC)c2ccccc2)n1 (centres undefined)
<78%

Can you share its Change? I mean this compound: CCCCCCCCCCCCc1nnn(C(C(=O)Nc2c(OC)cc(OC)cc2OC)c2ccccc2)n1 (centres undefined)
<68%

With those in mind, consider the next compound.
Can you share its Change? I mean this compound: CCCCCCCCCCCCn1nnc(C(C(=O)Nc2c(C(C)C)cccc2C(C)C)c2ccccc2)n1 (centres undefined)
<73%

* * *

# assay system: UniProt:Q61263
# Sequence (whole entry): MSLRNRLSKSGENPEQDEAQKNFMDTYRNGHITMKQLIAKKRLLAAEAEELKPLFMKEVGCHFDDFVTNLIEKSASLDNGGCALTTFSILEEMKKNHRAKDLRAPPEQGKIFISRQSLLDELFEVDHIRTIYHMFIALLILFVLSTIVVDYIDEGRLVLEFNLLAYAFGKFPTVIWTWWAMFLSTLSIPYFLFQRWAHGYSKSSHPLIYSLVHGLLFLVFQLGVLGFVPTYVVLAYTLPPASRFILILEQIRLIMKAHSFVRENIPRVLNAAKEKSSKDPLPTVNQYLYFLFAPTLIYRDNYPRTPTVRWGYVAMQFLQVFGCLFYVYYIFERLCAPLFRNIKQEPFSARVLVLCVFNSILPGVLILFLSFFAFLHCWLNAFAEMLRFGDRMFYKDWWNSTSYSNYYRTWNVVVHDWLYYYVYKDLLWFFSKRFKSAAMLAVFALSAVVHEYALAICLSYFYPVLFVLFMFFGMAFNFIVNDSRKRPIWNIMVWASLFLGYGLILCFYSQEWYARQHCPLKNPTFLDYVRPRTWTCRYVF
# protocol: In vitro inhibitory activity against acyl coenzyme A:cholesterol acyltransferase 1 in cell culture assay using murine IC-21 macrophages at 0.1 uM
measured parameter: inhibition
Please answer using a numeric value trailed by its unit.

# example entries with known answers
Can you share its inhibition? I mean this molecule: CCCCCCCCCCCCn1nnc(CC(=O)Nc2c(OC)cc(OC)cc2OC)n1
66%

Can you share its inhibition? I mean this molecule: CCCCCCCCn1nnc(C(C(=O)Nc2c(OC)cc(OC)cc2OC)c2ccccc2)n1 (stereo not given)
13%

Can you share its inhibition? I mean this molecule: CCCCCCCCCCCCn1nnc(CCC(=O)Nc2c(C(C)C)cccc2C(C)C)n1
17%

Can you share its inhibition? I mean this molecule: CCCCCCCCCCCCn1nnc(C2(C(=O)Nc3c(OC)cc(OC)cc3OC)CCCC2)n1
16%

With those in mind, consider the next molecule.
Can you share its inhibition? I mean this molecule: CCCCCCCCCCCCn1nnc(C(=O)Nc2c(C(C)C)cccc2C(C)C)n1
33%

* * *

# assay system: Sterol O-acyltransferase 1 (Mus musculus) (UniProt Q61263)
# protocol: In vitro inhibitory activity against acyl coenzyme A:cholesterol acyltransferase 1 in cell culture assay using murine IC-21 macrophages at 0.1 uM
Below is a list of entries, each paired with its recorded inhibition value.
The response must be a number in % with no trailing unit.

Can you share its inhibition? I mean this compound: CCCCCCCCCCCCn1nnc(C(C(=O)Nc2c(OC)cc(OC)cc2OC)c2ccc(OC)cc2)n1 (stereo not given)
61

Can you share its inhibition? I mean this compound: CCCCCCCCCCCCn1nnc(CC(=O)Nc2c(C(C)C)cccc2C(C)C)n1
91

Can you share its inhibition? I mean this compound: CCCCCCCCCCCCn1nnc(C(C(=O)Nc2ccccn2)c2ccccc2)n1 (stereo not given)
8

Can you share its inhibition? I mean this compound: CCCCCCCCCCCCn1nnc(C(C#N)C(=O)Nc2c(OC)cc(OC)cc2OC)n1 (stereo not given)
7

With those in mind, consider the next compound.
Can you share its inhibition? I mean this compound: CCCCCCCCCCCCc1nnn(CC(=O)Nc2c(C(C)C)cccc2C(C)C)n1
95

* * *

Below is a list of entries, each paired with its recorded Change value.
# System: Rattus norvegicus
# protocol: Percent change in total cholesterol (TC) in cholic acid (0.5%)-, cholesterol (1.5%) -, and peanut oil (5.5%)- fed rats at a dose 30 mg/kg.
# Type: functional

# example entries with known answers
Can you share its Change? I mean this molecule: CCCCCCCCCCCCn1nnc(C(C(=O)Nc2c(C(C)C)cccc2C(C)C)c2ccccc2)n1 (stereo not given)
<66%

Can you share its Change? I mean this molecule: CCCCCCCCCCCCn1nnc(C(C(=O)Nc2c(C(C)C)cccc2C(C)C)c2ccccn2)n1 (stereo not given)
<64%

Can you share its Change? I mean this molecule: CCCCCCCCCCCCn1nnc(C(C(=O)Nc2c(OC)cc(OC)cc2OC)c2ccccn2)n1 (stereo not given)
<60%

Can you share its Change? I mean this molecule: CCCCCCCCCCCCn1nnc(C(C(=O)Nc2ncccc2C)c2ccccc2)n1 (stereo not given)
<52%

With those in mind, consider the next molecule.
Can you share its Change? I mean this molecule: CCCCCCCCCCCCn1nnc(CC(=O)Nc2c(C(C)C)cccc2C(C)C)n1
<64%
